test: in vitro; conditions: human, RD cells, uninfected
measurement-label: CC50

Query: Fill in: CC50 of CN(C)C(=O)c1cc(CCCn2ccc3cc(-c4noc(C(F)(F)F)n4)cnc32)on1 [Compound 29] is ___
Result: > 100 µM

Query: Then Cc1cc(-c2noc(C(F)(F)F)n2)ccc1OCCCc1cc(C(=O)N(C)C)no1 [Compound 2, CP-11526092, reference compound] ?
Result: > 42 µM

Query: Then Cc1cc(-c2noc(C(F)(F)F)n2)ccc1O[C@H]1CCN(c2cc(C(=O)N(C)C)no2)C1 [Compound 34] ?
Result: > 50 µM

Query: Then Cc1cc(-c2noc(C(F)(F)F)n2)ccc1OCCCc1nnc(C(F)(F)F)o1 [Compound 38] ?
Result: > 50 µM

Query: Then CN(C)C(=O)c1cc(-c2cccc(Oc3ccc(-c4noc(C(F)(F)F)n4)cc3)c2)on1 [Compound 31] ?
Result: > 50 µM

Query: Then CN(C)C(=O)c1cc(CCCn2ccc3cc(-c4noc(C(F)(F)F)n4)ncc32)on1 [Compound 30] ?
Result: > 100 µM

Query: Then Cc1cc(CCCOc2c(C)cc(-c3noc(C(F)(F)F)n3)cc2C)on1 [Compound 1, Pleconaril] ?
Result: > 50 µM

Query: Then CN(C)C(=O)c1cc(CCCn2ccc3cc(C#N)ccc32)on1 [Compound 25] ?
Result: > 50 µM

Query: Then Cc1cc(-c2noc(C(F)(F)F)n2)ccc1O[C@@H]1CCN(c2cc(C(=O)N(C)C)no2)C1 [Compound 33] ?
Result: > 50 µM

Query: Then Cc1cc(-c2noc(C(F)(F)F)n2)ccc1OCCNc1cc(C(=O)N(C)C)no1 [Compound 24] ?
Result: > 50 µM

Query: Then Cc1cc(-c2noc(C(F)(F)F)n2)ccc1Oc1cncc(-c2cc(C(=O)N(C)C)no2)c1 [Compound 32] ?
Result: > 50 µM
